target: Recombinant human KIF18A (1-467 His-tagged) protein (Homo sapiens); construct: Recombinant human KIF18A (1-467 His-tagged) protein; His; experiment: KIF18A Enzyme Assay: microtubule-stimulated ATPase activity assay (ADP-Glo); conditions: 30 nM KIF18A, 30 μg/mL pig microtubules, ATP at Km 75 μM, room temperature, ADP-Glo luminescence
pIC50: −log10 of the molar value.
ASSAY READOUT: pIC50

                                   compound  quantitative_result
0  Cc1cc(NC(=O)c2cnc(NC(C)(C)CO)nc2N2CCC3(CC2)CC3)nc(N2CCC(F)(F)CC2)n1 [Example 2-7]                 7.26

A: Cc1cc(NC(=O)c2cnc(NS(=O)(=O)CCO)cc2N2CCC3(CC2)CC3)nc(N2CCC(F)(F)CC2)n1 [Example 7]
B: Cc1cc(NC(=O)c2ncc(NC(C)(C)CO)cc2N2CCC3(CC2)CC3)nc(N2CCC(F)(F)CC2)n1 [Example 2-6]
Given the listed items, does A or B have the lesser reported pIC50? Give the label under which the chosen entry appears.
B

----------
biological target: Recombinant human KIF18A (1-467 His-tagged) protein (Homo sapiens, UniProt Q8NI77); construct: Recombinant human KIF18A (1-467 His-tagged) protein; His; assay: KIF18A Enzyme Assay: microtubule-stimulated ATPase activity assay (ADP-Glo); format: biochemical; details: 30 nM KIF18A, 30 μg/mL pig microtubules, ATP at Km 75 μM, room temperature, ADP-Glo luminescence
Sequence (Q8NI77 1-467): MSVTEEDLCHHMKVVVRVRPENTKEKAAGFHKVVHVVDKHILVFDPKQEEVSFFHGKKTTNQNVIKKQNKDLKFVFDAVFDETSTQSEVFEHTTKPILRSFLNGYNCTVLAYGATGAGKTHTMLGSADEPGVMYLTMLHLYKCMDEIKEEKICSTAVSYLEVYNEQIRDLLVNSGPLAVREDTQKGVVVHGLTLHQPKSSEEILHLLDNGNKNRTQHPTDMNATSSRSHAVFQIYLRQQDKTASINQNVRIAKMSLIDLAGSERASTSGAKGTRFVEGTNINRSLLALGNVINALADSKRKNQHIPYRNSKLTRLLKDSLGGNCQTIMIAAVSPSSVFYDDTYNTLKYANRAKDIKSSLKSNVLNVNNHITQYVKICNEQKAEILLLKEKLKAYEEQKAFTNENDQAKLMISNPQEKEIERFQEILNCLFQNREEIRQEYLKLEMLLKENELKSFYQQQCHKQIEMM
Sequence (P02550 whole entry partner): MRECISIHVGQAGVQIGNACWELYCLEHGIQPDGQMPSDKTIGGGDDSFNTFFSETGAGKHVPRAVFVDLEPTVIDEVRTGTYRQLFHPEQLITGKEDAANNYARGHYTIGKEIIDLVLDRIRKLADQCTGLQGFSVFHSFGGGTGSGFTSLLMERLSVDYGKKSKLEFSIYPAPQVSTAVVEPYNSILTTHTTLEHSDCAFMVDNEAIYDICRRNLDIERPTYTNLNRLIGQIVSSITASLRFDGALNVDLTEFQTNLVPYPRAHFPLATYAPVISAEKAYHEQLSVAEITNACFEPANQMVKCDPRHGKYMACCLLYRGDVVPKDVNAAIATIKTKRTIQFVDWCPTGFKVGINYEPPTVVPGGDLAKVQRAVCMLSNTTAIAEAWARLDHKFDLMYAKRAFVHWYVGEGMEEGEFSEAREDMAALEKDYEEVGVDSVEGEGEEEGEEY
Sequence (P02554 whole entry partner): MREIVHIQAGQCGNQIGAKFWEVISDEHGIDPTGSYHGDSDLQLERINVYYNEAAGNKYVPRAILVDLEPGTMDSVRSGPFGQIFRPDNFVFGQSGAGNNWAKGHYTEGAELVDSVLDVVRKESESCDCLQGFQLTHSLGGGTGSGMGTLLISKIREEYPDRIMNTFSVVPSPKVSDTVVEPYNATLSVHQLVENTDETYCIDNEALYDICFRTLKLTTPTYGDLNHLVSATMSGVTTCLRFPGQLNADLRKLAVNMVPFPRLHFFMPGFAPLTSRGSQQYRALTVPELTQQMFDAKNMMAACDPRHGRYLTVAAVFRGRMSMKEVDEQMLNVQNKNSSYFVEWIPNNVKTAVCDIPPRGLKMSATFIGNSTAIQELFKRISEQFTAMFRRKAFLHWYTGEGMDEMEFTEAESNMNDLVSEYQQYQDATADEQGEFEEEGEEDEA
ASSAY READOUT: IC50 (nM)

Guide cases for IC50, answers given:
>>> print(df.to_string())
                                   compound  assay_readout  quantitative_result
0  Cc1cc(NC(=O)c2ccc(NC3(CO)COC3)nc2N2CCC3(CC2)CC3)nc(N2CCO[C@H](C)C2)n1           IC50                  218
1  Cc1cc(NC(=O)c2ccc(NC3(C)COC3)nc2N2CCC3(CC2)CC3)nc(N2CCO[C@H](C)C2)n1           IC50                  355
2  O=C(Nc1ccc(NS(=O)(=O)CCO)cc1N1CCC2(CC1)CC2)c1ccnc(N2CCC(F)(F)CC2)c1           IC50                   27
3  Cc1cc(NC(=O)c2ncc(NS(=O)(=O)CCO)nc2N2CCC3(CC2)CC3)nc(N2CCC(F)(F)CC2)n1           IC50                   80

A: Cc1cc(NC(=O)c2cnc(NS(=O)(=O)CCO)nc2N2CCC3(CC2)CC3)nc(N2CCC(F)(F)CC2)n1
B: Cc1cc(NC(=O)c2ccc(NC3COC3)nc2N2CCC3(CC2)CC3)nc(N2CCO[C@H](C)C2)n1
For this pair, A and B , which shows a numerically higher IC50? Give the label under which the chosen entry appears.
B
(B: 916 nM, A: 272 nM)

A: Cc1cc(NC(=O)c2ncc(NC(C)(C)CO)nc2N2CCC3(CC2)CC3)nc(N2CCC(F)(F)CC2)n1
B: Cc1cc(NC(=O)c2ccc(NC3(CO)COC3)nc2N2CCC3(CC2)CC3)nc(N2CCC(F)(F)CC2)n1
C: Cc1cc(NC(=O)c2ccc(NC3(C)COC3)nc2N2CCC3(CC2)CC3)nc(N2CCC(F)(F)CC2)n1
D: Cc1cc(NC(=O)c2ncc(NS(=O)(=O)CCO)cc2N2CCC3(CC2)CC3)nc(N2CCC(F)(F)CC2)n1
Please list these compounds in decreasing order of IC50. Reply with the item labels sorted in the order that was asked for.
C, B, A, D
(C: 453 nM, B: 173 nM, A: 88 nM, D: 15 nM)

A: Cc1cc(NC(=O)c2cc(NCCO)ncc2N2CCC3(CC2)CC3)nc(N2CCC(F)(F)CC2)n1
B: Cc1cc(NC(=O)c2ccc(NS(=O)(=O)CCO)nc2N2CCC3(CC2)CC3)nc(N2CCC(F)(F)CC2)n1
Given the listed items, does A or B have the lesser reported IC50? Give the label under which the chosen entry appears.
B
(B: 31 nM, A: 394 nM)
